These measurements were taken from the supplement of paper PMC9732359.

test: protein stability index of a GFP-peptide fusion (yeast GPS) (PSI 1-4); higher = more stable; sorted into four equal gates, so the index is relative within each strain; conditions: ubr1∆
A collection of sequences and their measured protein stability index
Number only, no unit.

Look over these answered cases.
SKLSLSRTDAVRCKDCG [RPC10]: 1.9
STTNSDVSLLLQRDLFI [RGR1]: 3.02
VQDRGLSAVAQAESMKF [RPS3]: 2.9
IDELIDTKLRLEKSKNE [YIL149C/MLP2]: 2.8
AGENAPSIVFIDEIDAI [RPT2]: 1.86

Respond only with protein stability index recorded for ARNLIEDEDDGESEKSS [RPC53] 3.29

Respond only with protein stability index recorded for QQQQQQQQRRQLTPQQQ [GAL11] 2.83

Respond only with protein stability index recorded for EYEELKEKIEKLSKSAT [SMC1] 3.08

Respond only with protein stability index recorded for DSTVNKSITLKGRNNES [YDL088C/ASM4] 3.21

Respond only with protein stability index recorded for RATPATLTELKDALSNS [SRB2] 3.42

---

test: protein stability index of a GFP-peptide fusion (yeast GPS) (PSI 1-4); higher = more stable; sorted into four equal gates, so the index is relative within each strain; settings: san1∆
endpoint: protein stability index
Number only, no unit.

Respond only with protein stability index recorded for TSNWEIYKPLLFEIVSN [SRB8] 2.11

Respond only with protein stability index recorded for NGDNLYGNDEEVLFYED [RPN4] 3.1

Respond only with protein stability index recorded for NIRGNTIRQIILPDSLN [SMD1] 2.76

Respond only with protein stability index recorded for FTNVPLNLEQVTLNKYC [YJL039C/NUP192] 1.92

Respond only with protein stability index recorded for IRKGPAPLNLEIPAYEF [RIP1] 2.67

Respond only with protein stability index recorded for MAGLMHFKKPDITVHGE [RRP45] 1.76

Respond only with protein stability index recorded for HLEALQPLFSTVPEYLK [PGD1] 1.66

Respond only with protein stability index recorded for QMQQQQQAQAQAQAQAQ [GAL11] 2.19

Respond only with protein stability index recorded for SYEVEHVIQIPLNKPLL [TAF14] 2.52

Respond only with protein stability index recorded for LVSANNDNNSPHTPVTR [YLR018C/POM34] 2.92

Respond only with protein stability index recorded for NAEAKGLDATKLYVSHI [RPL17A] 3.01

Respond only with protein stability index recorded for NSLFYLKWSACTSLMDI [IRR1] 1.61

Respond only with protein stability index recorded for GYLITPPKHTELLLTTL [SSN2] 1.54

Respond only with protein stability index recorded for LDSQETPSTEESRAQNV [SWI3] 3.16

---

test: protein stability index of a GFP-peptide fusion (yeast GPS) (PSI 1-4); higher = more stable; sorted into four equal gates, so the index is relative within each strain; settings: ubr1∆
endpoint: protein stability index

Look over these answered cases.
QAIPKFQMNCYAKEDAF [RPN2]: 2.57
TSMTGDANLLEEGETSR [SWI3]: 3.3

Please examine the following record next.
Respond only with protein stability index recorded for NAKDIQIPVYDTFDGSD [FAS1] 2.29

---

assay: protein stability index of a GFP-peptide fusion (yeast GPS) (PSI 1-4); higher = more stable; sorted into four equal gates, so the index is relative within each strain; settings: pdr5∆
Give T when the value for protein stability index is at least 3. Give F when it is less.

Example results:
NLLHSYMEKGTQLDDLQ [YML103C/NUP188]: F
ALIFIFFAYFIGWCKED [YJL039C/NUP192]: F
ECLQAYIFFGPIYYQKL [RET1]: F
STKKIQVATKYASLKLP [YMR129W/POM152]: F
GRILQNLLHSYMEKGTQ [YML103C/NUP188]: F

Would you say KAPTKLDDPEAVSKDPL [DIS3] shows protein stability index at minimum 3? T

Would you say KREGRNELQEERLKVPI [POP6] shows protein stability index at minimum 3? T

Would you say SAYVKAFYQKGNKLVEL [SMC1] shows protein stability index at minimum 3? F

Would you say NAKDIQIPVYDTFDGSD [FAS1] shows protein stability index at minimum 3? F

Would you say SAGRIESNNPSHDASRS [SIR4] shows protein stability index at minimum 3? F

Would you say QVPSSLIVRAKNHTHNL [RRP4] shows protein stability index at minimum 3? F

Would you say KSLGVKSLGGGAALKDI [FAS2] shows protein stability index at minimum 3? F
